- method description: chemical genetic growth profiling, strain panel (AID 1159580);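 further: tested at 20 µM; growth read once vehicle control cultures reached saturation at 30 °C; 1 = growth at the plate median or of vehicle wells; lower values mean less growth of the strain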
- setup conditions: S. cerevisiae deletion strains, growth OD, locus YNL153C, strain GIM3, hits give low values
Among all 5,500 compounds or so, about 2,000 (36%) were called active. About 18% were inconclusive and are not listed. This is one part of the list.
Rule: normalized growth below 1 gives Criterion met, anything at or above gives Criterion not met.

CC(C)=CCCC1(C)C=Cc2c(O)c3c(c(CC=C(C)C)c2O1)OC12C(=CCCC1C(C)(C)O[C@@]2(C/C=C(\C)C(=O)O)C(=O)O)C3=O (stereo not given in full)    Criterion met
CC(=O)O[C@H]1CC[C@@]2(C)C(CC[C@]3(C)C2CC=C2C4CC(C)(C)CC[C@]4(C)CC[C@]23C)C1(C)C (stereo not given in full)    Criterion not met
CC(C)=CCCC1(C)C=Cc2c(O)c3c(c(CC=C(C)C)c2O1)OC12C(=CC4CC1C(C)(C)OC2(C/C=C(\C)C(N)=O)C4=O)C3=O (stereo not given)    Criterion met

With those in mind, consider the next compound.
Ask | Strictly below 1: is that where normalized growth of CO[C@@]12[C@@H]3NC3CN1C1=C(C(=O)C(N)=C(C)C1=O)[C@@H]2COC(N)=O (stereo not given in full) sits?
Reply | Criterion not met

----------
- method description: chemical genetic growth profiling, strain panel (AID 1159580);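 further: tested at 20 µM; growth read once vehicle control cultures reached saturation at 30 °C; 1 = growth at the plate median or of vehicle wells; lower values mean less growth of the strain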
- setup conditions: S. cerevisiae deletion strains, growth OD, locus YNL298W, strain CLA4 (second series)
In all, about 5,500 compounds went through this assay and about 2,000 (36%) were called active. Roughly 18% stayed inconclusive and do not appear here. Rule as the data show it: active = normalized growth mostly below about 0.91 (no sharp cut-off); inconclusive = no clear call, values can overlap the other calls; inactive = mostly above about 0.92. The list shows a part of the results.
Result category, one only: t for active, f for inactive

Observe how each entry below is paired with its result.
O=C(N/N=C\c1c(O)ccc2ccccc12)N/N=C\c1c(O)ccc2ccccc12    f
CCOC(=O)NC(=O)c1cn(Cc2cccs2)c(=O)[nH]c1=O    f

Ask | So what was the verdict on `Nc1ccccc1C(=O)N/N=C\c1cccc2ccccc12` in this test?
Reply | t

Ask | So what was the verdict on `CCOC(=O)c1nc(-c2ccccc2)sc1C(=O)OCC` in this test?
Reply | t

Ask | So what was the verdict on `O=[N+]([O-])c1cnc(Sc2n[nH]c(-c3cccs3)n2)s1` in this test?
Reply | t

Ask | So what was the verdict on `Cc1cc(=O)n2[nH]cc(C#N)c2n1` in this test?
Reply | f

----------
As shown below, each of these molecules has a reported normalized growth value.
- method description: chemical genetic growth profiling, strain panel (AID 1159580);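 further: tested at 20 µM; growth read once vehicle control cultures reached saturation at 30 °C; 1 = growth at the plate median or of vehicle wells; lower values mean less growth of the strain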
- setup conditions: S. cerevisiae deletion strains, growth OD, locus YNL128W, strain TEP1, hits give low values
The whole screen tested about 5,500 compounds, of which about 2,000 (36%) were called active. Not shown: some 18% with an inconclusive outcome. Some of the results follow.
I only need the number, thanks.

Known normalized growth results, listed for orientation:
COc1ccc(-c2n[nH]c(=S)n2-c2cccc(OC)c2)cc1    0.989
C=C/C(C)=C\CC1C(C)(O)CCC2C(C)(C)CCCC21C (configuration not stated)    0.0735
C[C@@H]1OC(O[C@H]2[C@H](O)[C@@H](O)[C@H](OC[C@H]3O[C@@H](OC(=O)[C@]45CCC(C)(C)CC4C4=CCC6[C@@]7(C)CC[C@H](OC8OC[C@H](O)[C@H](O)[C@H]8OC8O[C@@H](C)[C@H](O)[C@@H](O)[C@H]8O)[C@@](C)(CO)C7CC[C@@]6(C)[C@]4(C)CC5)[C@H](O)[C@@H](O)[C@@H]3O)O[C@@H]2CO)[C@H](O)[C@H](O)[C@H]1O (some centres not stated)    0.994
FC(F)(F)c1cnc(N2CCN(C(=S)Nc3ccccc3)CC2)c(Cl)c1    1.01
C#C[C@]1(O)CCC2C3CCC4=CC(=O)CC[C@@H]4C3CC[C@@]21C (some centres not stated)    0.992

Ask | Item `CCN1CCC[C@H]1CNC(=O)c1cc(S(N)(=O)=O)ccc1OC` : provide normalized growth
Reply | 0.995

Ask | Item `NCCC(=O)N[C@@H](Cc1cnc[nH]1)C(=O)O` : provide normalized growth
Reply | 0.989

Ask | Item OC(CCN1CCCC1)(c1ccccc1)C1CCCCC1 (configuration not stated) : provide normalized growth
Reply | 0.982

Data origin: PubChem BioAssay AID1159580
